target.or.system: cGMP-specific 3',5'-cyclic phosphodiesterase (Homo sapiens)
experiment.notes: DRUGMATRIX: Phosphodiesterase PDE5 enzyme inhibition (substrate: [3H]cGMP + cGMP)
Assay type: tissue-based, Platelet
measurement.setup: platelet; Not Active = under 50% inhibition at 10 µM
measured.property: Ki

// worked examples, Ki included
• CISPLATIN = Not Active
• GOLD SODIUM THIOMALATE = Not Active
• IVERMECTIN = Not Active
• CARBOPLATIN = Not Active

// next entry
Form field: reported Ki of OXALIPLATIN
Not Active

----------
target.or.system: UniProt:P15823
Sequence (P15823 whole entry): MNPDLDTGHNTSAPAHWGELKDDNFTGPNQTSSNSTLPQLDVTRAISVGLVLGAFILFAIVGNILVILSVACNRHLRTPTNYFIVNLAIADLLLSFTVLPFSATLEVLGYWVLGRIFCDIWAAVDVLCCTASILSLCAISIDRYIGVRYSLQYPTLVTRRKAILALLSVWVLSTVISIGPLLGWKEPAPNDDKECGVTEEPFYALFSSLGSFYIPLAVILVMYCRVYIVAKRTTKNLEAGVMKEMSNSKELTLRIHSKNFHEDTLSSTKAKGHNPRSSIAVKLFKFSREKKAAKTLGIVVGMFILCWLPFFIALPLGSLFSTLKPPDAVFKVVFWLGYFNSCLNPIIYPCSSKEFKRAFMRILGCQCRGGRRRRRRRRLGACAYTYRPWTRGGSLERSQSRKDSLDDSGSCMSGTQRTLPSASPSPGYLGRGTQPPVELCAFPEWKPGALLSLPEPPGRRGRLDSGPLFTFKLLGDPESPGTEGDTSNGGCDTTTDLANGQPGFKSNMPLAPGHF
experiment.notes: DRUGMATRIX: Alpha-1B adrenergic receptor radioligand binding (ligand: prazosin)
Type: cell membranes, Wistar, Liver, Membrane
measurement.setup: Not Active = under 50% inhibition at 10 µM; read-out: IC50
Answer each item with its documented pIC50.
Numbers only, as −log10 of the molar value.

// worked examples, pIC50 included
• CC[C@H]1OC(=O)[C@H](C)[C@@H](O[C@H]2C[C@@](C)(OC)[C@@H](O)[C@H](C)O2)[C@H](C)[C@@H](O[C@@H]2O[C@H](C)C[C@H](N(C)C)[C@H]2O)[C@](C)(O)C[C@@H](C)/C(=N\OCOCCOC)[C@H](C)[C@@H](O)[C@]1(C)O = 6.00
• CC(CCc1ccccc1)NCC(O)c1ccc(O)c(C(N)=O)c1 (stereo not drawn) = 6.23

// next entry
Param readout= pIC50; system= UniProt:P15823; entry= COC(=O)[C@@H]1[C@H]2C[C@H]3c4[nH]c5ccccc5c4CCN3C[C@@H]2CC[C@@H]1O ; returns value.
5.93

----------
target.or.system: UniProt P33032
Sequence (P33032 whole entry): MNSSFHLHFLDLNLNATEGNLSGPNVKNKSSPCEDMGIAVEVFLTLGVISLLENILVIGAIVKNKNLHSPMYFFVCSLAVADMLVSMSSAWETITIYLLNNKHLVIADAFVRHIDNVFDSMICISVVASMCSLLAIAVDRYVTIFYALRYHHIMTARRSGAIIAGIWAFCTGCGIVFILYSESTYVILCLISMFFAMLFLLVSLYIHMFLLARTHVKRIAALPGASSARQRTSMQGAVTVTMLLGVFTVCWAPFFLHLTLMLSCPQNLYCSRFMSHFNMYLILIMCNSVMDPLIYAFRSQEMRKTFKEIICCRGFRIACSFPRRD
Format: cell membranes, HEK293, Membrane
measurement.setup: read-out: Ki
measured.property: pKi
Numbers only, as −log10 of the molar value.

Param readout= pKi; system= UniProt P33032; entry= COc1ccc(CCN2CCC(Nc3nc4ccccc4n3Cc3ccc(F)cc3)CC2)cc1 [ASTEMIZOLE] ; returns value.
5.67

----------
target.or.system: Cysteinyl leukotriene receptor 1 (Homo sapiens, UniProt Q9Y271); note: in other assays of this panel Not Active means under 50% inhibition at 10 µM
Sequence (Q9Y271 whole entry): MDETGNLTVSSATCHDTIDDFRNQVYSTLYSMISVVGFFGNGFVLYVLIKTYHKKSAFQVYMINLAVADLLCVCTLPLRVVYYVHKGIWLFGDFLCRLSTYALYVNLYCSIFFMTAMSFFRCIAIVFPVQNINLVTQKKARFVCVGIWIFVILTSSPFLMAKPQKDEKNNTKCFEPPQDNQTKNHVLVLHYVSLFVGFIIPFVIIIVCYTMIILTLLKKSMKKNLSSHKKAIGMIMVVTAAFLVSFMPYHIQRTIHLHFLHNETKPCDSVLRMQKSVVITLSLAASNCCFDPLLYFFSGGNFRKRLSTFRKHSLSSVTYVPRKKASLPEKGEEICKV
Type: cell membranes, CHO-K1, Membrane
measurement.setup: cho-k1
measured.property: IC50

// worked examples, IC50 included
• CN(N=O)C(=O)N[C@@H](C=O)[C@@H](O)[C@H](O)[C@H](O)CO = Not Active
• N#C[C@H](O[C@@H]1O[C@H](CO[C@@H]2O[C@H](CO)[C@@H](O)[C@H](O)[C@H]2O)[C@@H](O)[C@H](O)[C@H]1O)c1ccccc1 = Not Active
• Cc1cc(NS(=O)(=O)c2ccc(N)cc2)no1 = Not Active
• CCOC(=O)c1ccc(N)cc1 = Not Active

// next entry
Form field: reported IC50 of O=P1(NCCCl)OCCCN1CCCl (stereo not given) [IFOSFAMIDE]
Not Active

----------
target.or.system: Cytochrome P450 2E1 (Homo sapiens); note: in other assays of this panel Not Active means under 50% inhibition at 10 µM
Sequence (P05181 whole entry): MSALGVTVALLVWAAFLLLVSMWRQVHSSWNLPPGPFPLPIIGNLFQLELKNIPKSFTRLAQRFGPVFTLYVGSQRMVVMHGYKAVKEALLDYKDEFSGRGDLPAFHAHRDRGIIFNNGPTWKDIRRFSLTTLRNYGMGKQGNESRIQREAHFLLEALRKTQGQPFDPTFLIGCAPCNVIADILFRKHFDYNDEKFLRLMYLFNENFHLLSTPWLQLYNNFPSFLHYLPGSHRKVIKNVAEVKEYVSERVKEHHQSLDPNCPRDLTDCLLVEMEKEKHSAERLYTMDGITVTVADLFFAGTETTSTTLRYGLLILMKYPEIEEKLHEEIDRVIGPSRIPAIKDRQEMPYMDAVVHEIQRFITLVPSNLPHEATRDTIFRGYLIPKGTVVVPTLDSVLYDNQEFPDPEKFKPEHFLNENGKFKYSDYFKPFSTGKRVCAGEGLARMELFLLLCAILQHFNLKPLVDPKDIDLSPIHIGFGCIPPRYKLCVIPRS
measurement.setup: bti-tn-5b1-4
measured.property: IC50

// worked examples, IC50 included
- COc1ccc([C@@H]2Sc3ccccc3N(CCN(C)C)C(=O)[C@@H]2OC(C)=O)cc1 [DILTIAZEM]: Not Active
- CN1CCC[C@H]1c1cccnc1 [NICOTINE]: Not Active
- CC1=Nc2ccc(Cl)cc2S(=O)(=O)N1 [DIAZOXIDE]: Not Active
- Cc1ccccc1N1CCN(CCc2nnc3n2CCCC3)CC1 [DAPIPRAZOLE]: Not Active
- NCC[C@H](O)C(=O)N[C@@H]1C[C@H](N)[C@@H](O[C@H]2O[C@H](CN)[C@@H](O)[C@H](O)[C@H]2O)[C@H](O)[C@H]1O[C@H]1O[C@H](CO)[C@@H](O)[C@H](N)[C@H]1O [AMIKACIN]: Not Active
- CN1[C@@H]2CC[C@H]1C[C@@H](OC(=O)c1c[nH]c3ccccc13)C2 [TROPISETRON]: Not Active
- N=C(N)NCCCCNC(=N)N.O=S(=O)(O)O [ARCAINE SULFATE]: Not Active
- COc1c(N2CCNC(C)C2)c(F)cc2c(=O)c(C(=O)O)cn(C3CC3)c12 (stereo not given) [GATIFLOXACIN]: Not Active
- Nc1nnc(-c2cccc(Cl)c2Cl)c(N)n1 [LAMOTRIGINE]: Not Active
- CC1COc2c(N3CCN(C)CC3)c(F)cc3c(=O)c(C(=O)O)cn1c23 (stereo not given) [OFLOXACIN]: Not Active

Please go through the list and note IC50 for each molecule.
1. Cc1[nH]cnc1CN1CCc2c(c3ccccc3n2C)C1=O [ALOSETRON]
2. COC(=O)[C@H](c1ccccc1Cl)N1CCc2sccc2C1 [CLOPIDOGREL]
3. NNC(=O)c1ccncc1 [ISONIAZID]
4. CCc1cccc2c3c([nH]c12)C(CC)(CC(=O)O)OCC3 (stereo not given) [ETODOLAC]

1. Not Active
2. Not Active
3. Not Active
4. Not Active

Please go through the list and note IC50 for each molecule.
1. O=C(CCCN1CCC(O)(c2ccc(Cl)cc2)CC1)c1ccc(F)cc1 [HALOPERIDOL]
2. NCC1(CC(=O)O)CCCCC1 [GABAPENTIN]
3. CCCc1cc(=O)[nH]c(=S)[nH]1 [PROPYLTHIOURACIL]
4. Nc1nc2c(ncn2COC(CO)CO)c(=O)[nH]1 [GANCICLOVIR]
5. COc1cc(C(=O)NC2CCCNC2)cc(OC)c1OC (stereo not given) [TROXIPIDE]
6. COc1cccc(C2(O)CCCCC2CN(C)C)c1 (stereo not given) [TRAMADOL]

1. Not Active
2. Not Active
3. Not Active
4. Not Active
5. Not Active
6. Not Active

Values were extracted from ChEMBL document CHEMBL1909046.
